# System: SW-620
# Assay protocol: NCI tumour cell line growth inhibition, 48 h
Calls of active or inactive are those of the source. Cut-off read from the data, not from the text of the source: active = GI50 up to about 1.1 µM and inactive = higher.
Listed here are compounds together with their documented GI50.

Compound: O=C(O)Cn1ccc(=O)c2ccc([N+](=O)[O-])cc21
GI50: > 100 µM (inactive)

Compound: COc1ccc(C2=NN(C(=O)c3ccc(Cl)cc3)C(O)(c3cc(F)c(Cl)cc3Cl)C2)cc1OC (stereo not given)
GI50: 6.97 µM (inactive)

Compound: CS/C(C)=N/OC(=O)NCCCCNc1ccc(N=[N+]=[N-])cc1
GI50: 58.5 µM (inactive)

Compound: O=C(CCCN1CCC2(CC1)C(=O)NC(=O)N2c1ccccc1)c1ccc(F)cc1
GI50: > 100 µM (inactive)

Compound: O=C1N/C(=N/N=C/c2cccs2)N/C1=C\c1ccco1
GI50: 30.4 µM (inactive)

---

# Test system: HT-29
# Assay protocol: NCI tumour cell line growth inhibition, 48 h
The source made the active and inactive calls. Rule as the data show it: active = GI50 up to about 1.1 µM and inactive = higher.
Labels: True for active, False for inactive

Molecule: CCCO/S(=N\S(=O)(=O)c1ccccc1)c1ccccc1[N+](=O)[O-] (stereo unspecified)
Answer label: False

Molecule: C1=CC2C=CC(C=C1)P2c1ccccc1 (stereo unspecified)
Answer label: False

Molecule: N/C(=N\N=C\c1c[nH]c2ccccc12)Nc1ccccc1
Answer label: True

Molecule: COC1CCN(N(C)C)O1 (stereo unspecified)
Answer label: False

Molecule: CC(C)C1=C(Cc2ccccc2)C(=O)O/C1=C\c1ccc(O)c(Cl)c1
Answer label: False

Molecule: CCOC(=O)c1c(N2CCOCC2)[nH]c(=O)c(C(c2ccc(N(C)C)cc2)c2c(O)c(C(=O)OCC)c(N3CCOCC3)[nH]c2=O)c1O
Answer label: False

Molecule: CC(=O)OC1CCCn2c1nc1c2C(=O)C(C)=C(N2CC2)C1=O (stereo unspecified)
Answer label: True

Molecule: CC(C)(C)OC(=O)NC(CCC(=O)OCc1ccccc1)C(=O)NCCCO (stereo unspecified)
Answer label: False

Molecule: CCOP(=O)(/C=C\n1ccc(=O)[nH]c1=O)OCC
Answer label: False

Molecule: N#C/C(=C\c1cc(Cl)cc(Cl)c1)c1ccccn1
Answer label: False

Molecule: CCSc1c2ccccc2c(-c2nc(F)nc(F)n2)n1CCc1ccccc1
Answer label: False

---

# Tested on: DU-145
# Assay protocol: NCI tumour cell line growth inhibition, 48 h
Calls of active or inactive are those of the source. No stated cut-off is given here; in the data, active = GI50 up to about 1.1 µM and inactive = higher.

Compound: CC1OC(O[C@H]2CC[C@]3(C)[C@H]4CC=C5[C@@H]6[C@@H](C)[C@H](C)CC[C@]6(C(=O)OC6OC(CO)C(O)C(O)C6O)CC[C@@]5(C(=O)O)[C@]4(C)CC[C@H]3C2(C)C)C(O)C(O)C1O (some centres not stated)
Assayed target: DU-145
GI50: > 100 µM (inactive)
//
Compound: O=[N+]([O-])c1cc(-[n+]2cc([O-])on2)ccc1F
Assayed target: DU-145
GI50: 12.8 µM (inactive)
//
Compound: O=C1Nc2ccccc2/C1=C\c1c(-c2ccccc2)nc2n1CCS2
Assayed target: DU-145
GI50: 13.6 µM (inactive)
//
Compound: O=C(CCCN1CCC2(CC1)C(=O)NC(=O)N2c1ccccc1)c1ccc(F)cc1
Assayed target: DU-145
GI50: > 100 µM (inactive)
//
Compound: c1ccc2cc(CNCCCCNCCCNCc3ccc4ccccc4c3)ccc2c1
Assayed target: DU-145
GI50: 1.27 µM (inactive)
//
Compound: NC(Cc1ccc(O)cn1)C(=O)NC(C(=O)O)c1ccccc1 (configuration not stated)
Assayed target: DU-145
GI50: > 100 µM (inactive)
//
Compound: O=C(N/N=C\c1cccc2ccccc12)Nc1ccc([N+](=O)[O-])cc1
Assayed target: DU-145
GI50: 15.3 µM (inactive)
//
Compound: C/C(=N\O)C1CC(CC(=O)O)C1(C)C (configuration not stated)
Assayed target: DU-145
GI50: > 100 µM (inactive)
//
Compound: CCCN(CCCc1ccccc1)CCc1ccc2[nH]c(=S)[nH]c2c1
Assayed target: DU-145
GI50: 44.3 µM (inactive)
//
Compound: CC[C@H]1C[C@@H](O)[C@@H]2[C@H](O)[C@H](O)CN2C1
Assayed target: DU-145
GI50: > 100 µM (inactive)
//
Compound: CC(=O)O[C@H]1C(=O)[C@@]2(C)[C@H]([C@H](OC(=O)c3ccccc3)[C@]3(O)C[C@H](OC(=O)[C@H](O)[C@@H](NC(=O)c4ccccc4)c4ccc5ccccc5c4)C(C)=C1C3(C)C)[C@]1(OC(C)=O)CO[C@@H]1C[C@@H]2O
Assayed target: DU-145
GI50: 0.1 µM (active)
//
Compound: COc1ccc(OC)c(Cc2cnc3nc(N)nc(N)c3c2C)c1 [PIRITREXIM ISETHIONATE]
Assayed target: DU-145
GI50: 0.284 µM (active)
//
Compound: CC(C)(C)OC(=O)N(CCCCNC(=O)C(F)(F)F)CCCNC(=O)C(F)(F)F
Assayed target: DU-145
GI50: > 100 µM (inactive)
//
Compound: O=C1/C(=C/c2ccc([N+](=O)[O-])cc2)C(=O)N(c2ccccc2)C1c1ccccc1 (configuration not stated)
Assayed target: DU-145
GI50: > 10 µM (inactive)
//
Compound: CC(=O)/C=C1\Nc2sc(C)c(C)c2C(=O)S1
Assayed target: DU-145
GI50: 69.7 µM (inactive)
//
Compound: CC(=O)Nc1cc(C(=O)Nc2cc(C(=O)Nc3cc(C(=O)Nc4cc(C(=O)Nc5cc(C(=O)NCCC(=O)NCCCN(C)C)n(C)c5)n(C)c4)n(C)c3)n(C)c2)n(C)c1
Assayed target: DU-145
GI50: > 100 µM (inactive)
//
Compound: NC(Cc1ccc(S(=O)(=O)O)cc1)C(=O)NC(CCCCNC(=O)NCCCCC(NC(=O)C(N)Cc1ccc(S(=O)(=O)O)cc1)C(=O)NC(Cc1ccc(S(=O)(=O)O)cc1)C(=O)O)C(=O)NC(Cc1ccc(S(=O)(=O)O)cc1)C(=O)O (configuration not stated)
Assayed target: DU-145
GI50: > 100 µM (inactive)

---

# Tested on: LOX IMVI
# Assay protocol: NCI tumour cell line growth inhibition, 48 h
Activity calls are given as the source filed them. Cut-off read from the data, not from the text of the source: active = GI50 up to about 1.1 µM and inactive = higher.
Labels: Y for active, N for inactive

Molecule: O=C1CCC2(O)C3Cc4ccc(Oc5nnnn5-c5ccccc5)c5c4C2(CCN3CC2CC2)C1O5 (stereo not drawn)
Answer label: N

Molecule: COCC([C@@H](O)C(O)C(=O)NCC[C@@H](C)c1nc(/C=C/CC2OC3(C[C@H](O)C2C)OC(C(C[C@H](O)C(C)[C@H](O)C(C)/C=C(C)/C(C)=C/C=C/C(C)=C/C#N)OC)[C@@H](OP(=O)(O)O)C3(C)C)co1)N(C)C (stereo partly drawn)
Answer label: Y

Molecule: CNS(=O)(=O)c1ccccc1C(=N)c1ccccc1
Answer label: N

Molecule: CC12CCC(/C(=N/c3cc(C(F)(F)F)cc(C(F)(F)F)c3)C1=O)C2(C)C (stereo not drawn)
Answer label: N

Molecule: O=C(c1ccccc1)c1ccc2[nH]c(-c3c(Cl)c(Cl)c(Cl)c(Cl)c3C(=O)N/N=C/c3cccc(Oc4ccccc4)c3)nc2c1
Answer label: N

Molecule: CCOC(=O)C1(C/C=C/CCl)CCCC1=O (stereo not drawn)
Answer label: N

Molecule: COC(=O)c1ccccc1NC(=S)NN(C)C
Answer label: N

Molecule: COC(=O)N1C2C(C[C@@]1(C)C(=O)OC)c1ccccc1N2S(=O)(=O)c1ccccc1 (stereo partly drawn)
Answer label: N

---

# Tested on: IGROV-1
# Assay protocol: NCI tumour cell line growth inhibition, 48 h
Calls of active or inactive are those of the source. Rule as the data show it: active = GI50 up to about 1.1 µM and inactive = higher.

Molecule: C=CCCCN1CCCC(C)C1=S (stereo unspecified)
Assayed target: IGROV-1
GI50: > 100 µM (inactive)
--
Molecule: COc1ccc2oc(=N)c(C(N)=S)cc2c1
Assayed target: IGROV-1
GI50: 29.6 µM (inactive)
--
Molecule: O=C1NC(=S)N/C1=C/c1c(-c2ccccc2)[nH]c2ccccc12
Assayed target: IGROV-1
GI50: 13.8 µM (inactive)
--
Molecule: [O-][n+]1cc(SCc2ccccc2)ncc1SCc1ccccc1
Assayed target: IGROV-1
GI50: > 10 µM (inactive)
--
Molecule: O=C1C[C@@H]2CCCC[C@@H]2C12SCCS2
Assayed target: IGROV-1
GI50: > 100 µM (inactive)
--
Molecule: CCOC(=O)C(/C(=N/NC(=O)OC)C(=O)Nc1ccc(C(C)=O)cc1)c1cnc2ccccc2n1 (stereo unspecified)
Assayed target: IGROV-1
GI50: > 100 µM (inactive)

---

Listed here are compounds together with their documented GI50.
# Test system: XF498
# Assay protocol: NCI tumour cell line growth inhibition, 48 h
Calls of active or inactive are those of the source. Rule as the data show it: active = GI50 up to about 1.1 µM and inactive = higher.
Assay endpoint: GI50

Compound: CN1CCC(CN2c3ccccc3Sc3ccccc32)CC1
Assayed target: XF498
Observed result: 11.5 µM (inactive)
//
Compound: CCOC(=O)NC(=O)c1cn(CC(=O)NCC(=O)NCC(=O)N2CCN(CCn3c(C)nc(C(N)=O)c3N)CC2)c(=O)[nH]c1=O
Assayed target: XF498
Observed result: > 100 µM (inactive)
//
Compound: O=c1[nH]nc2ccccc2c1Cl
Assayed target: XF498
Observed result: 14.5 µM (inactive)
//
Compound: COCCNC(=O)C1C(=O)N(CCOC)C(=O)/C1=N/N (configuration not stated)
Assayed target: XF498
Observed result: > 100 µM (inactive)
//
Compound: Brc1ccc(/N=c2/nc3ccccn3n3nc(-c4ccccc4)cc23)cc1
Assayed target: XF498
Observed result: 10.3 µM (inactive)
//
Compound: CC(C)=Cc1cc(C(=O)NCCNC(=O)c2cc(C=C(C)C)nc(NC#N)n2)nc(NC#N)n1
Assayed target: XF498
Observed result: > 100 µM (inactive)
//
Compound: C=C(C)[C@@H]1CC=C(CO)CC1
Assayed target: XF498
Observed result: 123 µM (inactive)
//
Compound: CC1OC(=O)N(CCCC=C2SCCCS2)C1=O (configuration not stated)
Assayed target: XF498
Observed result: > 100 µM (inactive)
//
Compound: [N-]=[N+]=NC1CC(n2cc(COCC(F)(F)F)c(=O)[nH]c2=O)OC1CO (configuration not stated)
Assayed target: XF498
Observed result: > 100 µM (inactive)
//
Compound: CC1(C)CC(=O)C(C(=O)C(=O)NC2=C(Cl)C(=O)c3ccccc3C2=O)C(=O)C1
Assayed target: XF498
Observed result: > 100 µM (inactive)
//
Compound: COC(=O)C(=O)C(CC(=O)Nc1ccc(C)cc1)C(=O)OC (configuration not stated)
Assayed target: XF498
Observed result: > 100 µM (inactive)
//
Compound: Nc1cc(S(=O)(=O)O)cc2cc(S(=O)(=O)O)c(/N=N/c3ccc(-c4ccc(/N=N/c5c(S(=O)(=O)O)cc6cc(S(=O)(=O)O)cc(N)c6c5O)cc4)cc3)c(O)c12
Assayed target: XF498
Observed result: > 100 µM (inactive)
//
Compound: COC(=O)c1cc(C)c(C)c2c1NC(=O)CNC2=O
Assayed target: XF498
Observed result: > 100 µM (inactive)
//
Compound: O=C1CCN(CCC(F)(F)C(F)(F)C(F)(F)C(F)(F)F)C(=S)N1
Assayed target: XF498
Observed result: > 100 µM (inactive)
//
Compound: COc1ccc([C@@H]2CC(=O)N2)cc1
Assayed target: XF498
Observed result: > 100 µM (inactive)
//
Compound: CCOC(=O)NC(=O)c1cn(CCN2CCN(C(=O)CCCCCCCCCCNc3ncnc4c3ncn4C3OC(CO)C(O)C3O)CC2)c(=O)[nH]c1=O (configuration not stated)
Assayed target: XF498
Observed result: > 100 µM (inactive)
//
Compound: Cc1ccc(N2C[N+](c3ccccc3)=NC(c3ccccc3)=N2)cc1
Assayed target: XF498
Observed result: 43.8 µM (inactive)
